assay: qHTS Assay for Lipid Storage Modulators (AID 1519); settings: Drosophila S3 cells, BODIPY lipid droplet/cell ratio, laser cytometry; measured here: cell count channel max response; cells loaded with oleic acid
Records with an inconclusive call do not appear.
observed property: max response (%)
Give just the number in %; leave the unit off.

Lookup: So what does the record say about max response for Cc1nc2cnc(OCc3ccccc3)nc2n(C)c1=O ?
Found: 13.5

Lookup: So what does the record say about max response for CNc1cc(-c2c(C)noc2C)ncn1 ?
Found: 25.8

Lookup: So what does the record say about max response for Cc1noc(C)c1-c1cc(NCc2cccs2)ncn1 ?
Found: 20.5

Lookup: So what does the record say about max response for FC(F)(F)c1cc(CN2CCCC3(CCNCC3)C2)cc(C(F)(F)F)c1 ?
Found: -0.613

Lookup: So what does the record say about max response for COc1ccc(-c2nc3cnc(Nc4cccc(OC)c4)nc3n(C3CC3)c2=O)cc1 ?
Found: 17.2
